System: Aspergillus niger
Assay: Antifungal activity against Aspergillus niger MTCC 282 assessed as growth inhibition at 12.5 to 1000 ug/mL after 48 hr by broth dilution method
Format: functional, organism-based
The source made the active and inactive calls. The calls are words filed in the database; no cut-off is given here.
Hi! Could you answer with just one of these? y = active, n = inactive

Here are 5 molecules together with their reported answers.
1) CC(=O)c1ccc(N2C(=O)/C(=C\c3ccc([N+](=O)[O-])cc3)N=C2C)cc1 : n
2) CC1=N/C(=C/c2ccccc2C)C(=O)N1c1ccc(/C(C)=N/NC(N)=S)cc1 : y
3) CC1=N/C(=C/c2ccc(F)cc2)C(=O)N1c1ccc(/C(C)=N/NC(N)=S)cc1 : y
4) COc1ccccc1/C=C1/N=C(C)N(c2ccc(/C(C)=N/NC(N)=S)cc2)C1=O : y
5) CC(=O)c1ccc(N2C(=O)/C(=C\c3ccccc3F)N=C2C)cc1 : n

**Q:** Tell me the recorded outcome of this test for CC(=O)c1ccc(N2C(=O)/C(=C\c3ccccc3Cl)N=C2C)cc1 .
**A:** n

**Q:** What outcome does the record of this test show for CC1=N/C(=C/c2ccccc2F)C(=O)N1c1ccc(/C(C)=N/NC(N)=S)cc1 ?
**A:** y

**Q:** # lookup: test call for CC(=O)c1ccc(N2C(=O)/C(=C\c3ccccc3)N=C2C)cc1
**A:** n

**Q:** Give the logged outcome of this assay for the following molecule: CC(=O)c1ccc(N2C(=O)/C(=C\c3ccccc3C)N=C2C)cc1
**A:** n

**Q:** Which outcome was entered for the molecule CC(=O)c1ccc(N2C(=O)/C(=C\c3ccc(F)cc3)N=C2C)cc1 in this test?
**A:** n

**Q:** Per the records of this test, what outcome belongs to CC(=O)c1ccc(N2C(=O)/C(=C\c3cccc(O)c3)N=C2C)cc1 ?
**A:** n

**Q:** Dear colleague, could you share the recorded outcome for CC1=N/C(=C/c2ccc([N+](=O)[O-])cc2)C(=O)N1c1ccc(/C(C)=N/NC(N)=S)cc1 when you have a moment?
**A:** y

**Q:** What outcome does the record of this test show for COc1ccc(/C=C2/N=C(C)N(c3ccc(/C(C)=N/NC(N)=S)cc3)C2=O)cc1 ?
**A:** y

----------
We begin with a simple list: items and their reported MIC.
Test system: Candida albicans
Experiment: Antifungal activity against Candida albicans MTCC 227 assessed as growth inhibition after 48 hr by broth dilution method
Assay type: functional
Details: MTCC 227, 48 h

// known answers, use as guide
1. CC1=N/C(=C\c2ccc(Cl)cc2)C(=O)N1c1ccc(/C(C)=N/N=C2/NC(=O)CS2)cc1 : 500 µg/mL
2. CC1=N/C(=C\c2ccc(O)cc2)C(=O)N1c1ccc(/C(C)=N/N=C2/NC(=O)CS2)cc1 : 50 µg/mL
3. CC1=N/C(=C\c2ccccc2O)C(=O)N1c1ccc(/C(C)=N/N=C2/NC(=O)CS2)cc1 : 100 µg/mL
4. COC1=CC(=O)C[C@@H](C)[C@]12Oc1c(Cl)c(OC)cc(OC)c1C2=O [GRISEOFULVIN] : 500 µg/mL
5. CC1=N/C(=C\c2ccc([N+](=O)[O-])cc2)C(=O)N1c1ccc(/C(C)=N/N=C2/NC(=O)CS2)cc1 : 500 µg/mL
6. COc1ccc(/C=C2\N=C(C)N(c3ccc(/C(C)=N/N=C4/NC(=O)CS4)cc3)C2=O)cc1 : 500 µg/mL

**Q:** What does the data say about its MIC? Entry: CC1=N/C(=C\c2cccc(O)c2)C(=O)N1c1ccc(/C(C)=N/N=C2/NC(=O)CS2)cc1
**A:** 500 µg/mL

**Q:** Report MIC for CC1=N/C(=C\c2ccccc2F)C(=O)N1c1ccc(/C(C)=N/N=C2/NC(=O)CS2)cc1 please.
**A:** 1000 µg/mL
